Target: T1, BCMA on cells, species not stated (Homo sapiens (Human), UniProt Q02223 1-184)
T1 construct: also called BCMA cells; 3T3 BCMA cells
T1 sequence: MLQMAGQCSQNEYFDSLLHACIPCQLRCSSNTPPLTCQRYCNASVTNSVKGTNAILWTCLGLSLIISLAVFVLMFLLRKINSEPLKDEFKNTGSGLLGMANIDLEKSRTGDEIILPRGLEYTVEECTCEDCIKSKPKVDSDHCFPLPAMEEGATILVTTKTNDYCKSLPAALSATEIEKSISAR
Assay: blocking of BAFF binding to BCMA cells
assay-readout: Span
Lab note: record the figure alone, no unit after it.

Observe how each entry below is paired with its result.
binder | Span
PR000274 (clone CA8-J6M0) (antibody, V domains shown) VH: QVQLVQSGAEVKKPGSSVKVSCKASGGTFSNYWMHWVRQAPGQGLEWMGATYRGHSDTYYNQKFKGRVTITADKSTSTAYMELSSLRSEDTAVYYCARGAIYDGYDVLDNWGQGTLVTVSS VL: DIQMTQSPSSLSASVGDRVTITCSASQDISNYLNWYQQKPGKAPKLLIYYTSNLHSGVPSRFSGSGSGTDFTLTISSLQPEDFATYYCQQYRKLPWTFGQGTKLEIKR | 1.86
PR000943 (antibody, V domains shown, also called HCAb antibody PR000943; not shown: constant part (CH2 and CH3 regions of the Harbour HCAb format)) VH: EVQLVETGGGLIQPGGSLRLSCAASGFPVSSNYMSWVRQAPGKGLEWVSVIFSGGRTYYADSVKGRFTISRDNSKNTLYLQMNSLRAEDTAVYYCARRNWIDGRDAFDIWGQGTMVTVSS | 2.19
PR001035 (antibody, V domains shown, also called HCAb antibody PR001035; not shown: constant part (CH2 and CH3 regions of the Harbour HCAb format)) VH: EVQLVETGGGLIQPGGSLRLSCAASGFTVSSNYMTWVRQAPGKGLEWVSVIFSGGSTYYADSVKGRFTISRDNSKNTLYLQMNSLRAEDTAVYYCARRIAVAGHDVFDIWGQGTMVTVSS | 1.92

Per the record, PR001046 (antibody, V domains shown, also called HCAb antibody PR001046; PR001046 VH-only human IgG1 test antibody; not shown: constant part (CH2 and CH3)) VH: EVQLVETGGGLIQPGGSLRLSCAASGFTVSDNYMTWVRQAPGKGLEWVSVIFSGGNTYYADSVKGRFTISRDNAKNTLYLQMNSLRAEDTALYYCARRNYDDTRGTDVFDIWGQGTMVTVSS has Span of 1.99
